Recorded values, source patent US5104865A.

Record form. Attribute: logD at 100 µM. Fill in for each entry.
experiment: Partition coefficient Kpart between n-octanol and aqueous tris hydrochloride; settings: n-octanol/tris hcl, pH 7.4
Keep it simple and answer with nothing but the number.

Looking up O=C(Cn1cccc(O)c1=O)NCCCCCCCCNC(=O)Cn1cccc(O)c1=O [Compound 5] , I found its logD at 100 µM recorded as -1.77

Looking up O=C(Cn1cccc(O)c1=O)NCCCN(CCCNC(=O)Cn1cccc(O)c1=O)C(=O)Cn1cccc(O)c1=O [Compound 10] , I found its logD at 100 µM recorded as -0.699

Looking up O=C(Cn1cccc(O)c1=O)NCCN(CCNC(=O)Cn1cccc(O)c1=O)CCNC(=O)Cn1cccc(O)c1=O [Compound 8] , I found its logD at 100 µM recorded as -1.7

---

molecular target: Human transferrin (Homo sapiens, UniProt P02787); construct: purchased Sigma; test: Mobilisation of iron from transferrin; format: biochemical; conditions: compound 4×10^-3 M, 59Fe(III) transferrin 10^-5 M, tris HCl 0.1M pH 7.4, 6 hours
Sequence (P02787 20-698): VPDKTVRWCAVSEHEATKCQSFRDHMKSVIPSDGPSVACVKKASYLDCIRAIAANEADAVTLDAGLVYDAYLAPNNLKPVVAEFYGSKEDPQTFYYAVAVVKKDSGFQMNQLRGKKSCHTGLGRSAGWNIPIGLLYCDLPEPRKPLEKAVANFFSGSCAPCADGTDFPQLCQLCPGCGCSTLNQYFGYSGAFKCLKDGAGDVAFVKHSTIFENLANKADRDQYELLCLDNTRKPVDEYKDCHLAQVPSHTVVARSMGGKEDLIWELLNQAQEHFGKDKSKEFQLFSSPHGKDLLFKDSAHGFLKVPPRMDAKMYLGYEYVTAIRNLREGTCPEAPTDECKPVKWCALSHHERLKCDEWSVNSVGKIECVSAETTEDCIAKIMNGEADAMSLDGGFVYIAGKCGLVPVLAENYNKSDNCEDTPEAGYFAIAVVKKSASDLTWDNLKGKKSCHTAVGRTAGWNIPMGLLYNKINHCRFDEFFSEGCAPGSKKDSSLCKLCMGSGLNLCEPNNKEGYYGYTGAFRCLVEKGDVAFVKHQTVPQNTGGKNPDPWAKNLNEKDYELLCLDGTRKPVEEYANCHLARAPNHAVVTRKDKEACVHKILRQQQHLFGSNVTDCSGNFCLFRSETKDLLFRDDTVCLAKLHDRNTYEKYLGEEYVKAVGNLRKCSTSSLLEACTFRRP
measuredAttribute: Percentage of iron removed from transferrin after 6 hours

Looking up CC(=O)N(O)CCCCCNC(=O)CCC(=O)N(O)CCCCCNC(=O)CCC(=O)N(O)CCCCCN , I found its Percentage of iron removed from transferrin after 6 hours recorded as 17%

Looking up O=C(Cn1cccc(O)c1=O)NCCN(CCNC(=O)Cn1cccc(O)c1=O)CCNC(=O)Cn1cccc(O)c1=O , I found its Percentage of iron removed from transferrin after 6 hours recorded as 40%

Looking up O=C(Cn1cccc(O)c1=O)NCCCCCCCCNC(=O)Cn1cccc(O)c1=O , I found its Percentage of iron removed from transferrin after 6 hours recorded as 32%

Looking up O=C(O)CN(CCN(CC(=O)O)CC(=O)O)CC(=O)O [EDTA, ethylenediamine tetra-acetic acid, reference compound] , I found its Percentage of iron removed from transferrin after 6 hours recorded as 27%

---

assay: Affinity for iron(III) expressed as log Ksol; assay type: physicochemical
measuredAttribute: log Ksol
Keep it simple and answer with nothing but the number.

Looking up O=C(O)CN(CCN(CC(=O)O)CC(=O)O)CCN(CC(=O)O)CC(=O)O [DTPA, diethylenetriamine penta-acetic acid] , I found its log Ksol recorded as 2.0

Looking up CC(=O)N(O)CCCCCNC(=O)CCC(=O)N(O)CCCCCNC(=O)CCC(=O)N(O)CCCCCN [Desferrioxamine, desferrioxamine] , I found its log Ksol recorded as 6.0

Looking up Cc1c(O)c(=O)ccn1C [1,2-dimethyl-3-hydroxypyrid-4-one] , I found its log Ksol recorded as 9.5

Looking up Cn1cccc(O)c1=O [3-hydroxyl-1-methylpyrid-2-one] , I found its log Ksol recorded as 10.0
